Origin of measurements: PubChem BioAssay (NCI)

Entries and their TGI
System: SK-MEL-5 melanoma
Assay: NCI tumour cell line growth inhibition, 48 h
Measure: TGI (µM)

Compound | Readout Relation | Reported
CCCC1C(C#N)(C#N)C(C#N)=C(N)C1(C)C(C)=O (centres undefined) | > | 100
COc1ccc(S(=O)(=O)N/N=C(\C)CN2C(=O)c3ccccc3C2=O)cc1 | > | 100
C=CCc1cccc2cc(C(=O)Nc3nc(C45CC6CC(CC(C6)C4)C5)cs3)c(=O)oc12 | > | 100
COP1(=S)OCC2CCC[C@@H]2O1 (some centres undefined) | > | 100
Nc1ccc(-c2nc3cc(F)ccc3s2)cc1 | > | 100
CCN1CCCCC(=N\O)/C(=N/O)CCCC1 | > | 100
C/C(=N\n1c(Cc2ccccc2)n[nH]c1=O)c1ccc([N+](=O)[O-])cc1 | > | 100
CCOC(=O)/C=C(/C(=O)OCC)n1ccc(=O)[nH]c1=O | = | 31
O=[N+]([O-])c1ccc(-[n+]2ccc3ccccc3c2)c([N+](=O)[O-])c1 | = | 6.56
O=C1C=C(NCCc2cc(Br)c(O)c(Br)c2)C(=O)c2[nH]cnc21 | = | 29
CN(/N=C/c1ccc(Cl)c(Cl)c1)C1=NCCN1 | = | 30.7
S=C1CSc2c(cnc3ccccc23)N1 | > | 100
C[C@@]12CCC[C@@](C)(C(=O)O)C1CC[C@@]13CC(=O)[C@@](CO)(CCC12)C3 (some centres undefined) | > | 100
c1ccc2c(c1)ccc1c3ccccc3ccc21 | > | 50
COc1cccc2c1C(=O)c1c(O)c3c(c(O)c1C2=O)C[C@@](O)(/C(C)=N\O)C[C@@H]3OC1CC(N)C(O)C(C)O1 (some centres undefined) | = | 2.29
O=C(CC(=O)c1ccccc1NC1=Cc2ccccc2C(=O)C1=O)C(=O)NC1=C(Cl)C(=O)c2ccccc2C1=O | = | 2.05
CC(C)(Oc1ccc(C(=O)c2ccc(Cl)cc2)cc1Cl)C(=O)N1CCN(c2ccccc2)CC1 | > | 100
CC(=O)N1C(OCc2ccccc2)CCN1c1ccccc1 (centres undefined) | > | 10
COc1ccc(-c2nn(-c3cccc(NC(=O)Nc4cccc(C(F)(F)F)c4)c3)cc2-c2ccncc2)cc1Cl | = | 3.22
CC(CN(C)C)C(=O)/C=C/c1ccc(Cl)c(Cl)c1 (centres undefined) | = | 2.99
CCC(C)CC(CC)NCCN1CCN(C(CC)CC(C)CC)C1=S (centres undefined) | = | 2.95
CCOC(=O)C12C(=O)CCN1CCc1ccccc1C2C (centres undefined) | > | 100
Cc1ccc([Se][Se]c2ccc(C)cc2)cc1 | = | 39.6
COC1(OC)c2ccccc2C2(O)c3ccccc3C(=O)C12 (centres undefined) | = | 31.9

* * *

Entries and their TGI
Tested on: M14 melanoma
Assay: NCI tumour cell line growth inhibition, 48 h

Compound | TGI
C/C(NC(=O)c1ccccc1)=C(/C(=O)c1ccccc1)[C@@H]1OC(C)(C)O[C@@H]1[C@H]1COC(C)(C)O1 | > 100 µM
O=[N+]([O-])c1ccc2c(c1)S(=O)c1ccccc1-2 (stereo not drawn) | > 100 µM
CCOC(=O)C12C(=O)CCN1CCc1ccccc1C2C (stereo not drawn) | > 100 µM
